Provenance of the data: paper PMC7288026

Molecular target: MAO-B (Homo sapiens, UniProt P27338)
Construct: purchased Sigma-Aldrich
Sequence (P27338 1-520): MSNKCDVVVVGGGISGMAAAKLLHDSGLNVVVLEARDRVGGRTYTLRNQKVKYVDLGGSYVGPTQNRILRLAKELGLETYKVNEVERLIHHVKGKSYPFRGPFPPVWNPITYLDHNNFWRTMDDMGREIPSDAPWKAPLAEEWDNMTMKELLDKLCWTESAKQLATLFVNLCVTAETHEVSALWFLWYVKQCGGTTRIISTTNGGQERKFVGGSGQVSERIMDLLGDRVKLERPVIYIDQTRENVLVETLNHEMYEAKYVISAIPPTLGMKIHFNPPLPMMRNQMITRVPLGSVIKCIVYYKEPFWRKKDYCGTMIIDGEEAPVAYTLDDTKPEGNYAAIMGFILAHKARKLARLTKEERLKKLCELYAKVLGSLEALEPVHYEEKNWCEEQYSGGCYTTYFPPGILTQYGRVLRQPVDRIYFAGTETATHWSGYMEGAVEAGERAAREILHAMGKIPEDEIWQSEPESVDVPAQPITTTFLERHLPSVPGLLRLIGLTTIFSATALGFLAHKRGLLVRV
Assay: biochemical
Conditions: read-out: Residual Activity (%) MAO-B (1.0 µM)
In this section we review reported remaining activity at 1 µM values for a set of compounds.
Your answer is read as %, so omit the unit and give the number.

Illustrative cases are given below, each with its answer.
| structure | endpoint-label | measurement-units | experimental-result |
| --- | --- | --- | --- |
| COc1ccc(/C=C/C(=N/Oc2ccc(/C=C/C(=O)c3ccc(F)cc3)cc2)c2ccc(OC)cc2)cc1 | remaining activity at 1 µM | % | 5.47 |
| C/C(=N\Oc1ccc(/C=C/C(=O)c2cccc3ccccc23)cc1)c1cccs1 | remaining activity at 1 µM | % | 9.91 |
| COc1ccc(/C=C/C(=N/Oc2ccc(/C=C/C(=O)c3ccc(OC)cc3)cc2)c2ccc(OC)cc2)cc1 | remaining activity at 1 µM | % | 21 |

Then there is this compound:
In: Query remaining activity at 1 µM on MAO-B (Homo sapiens, UniProt P27338) for COc1ccc(C(=O)/C=C/c2ccc(O/N=C(\C)c3ccccc3)cc2)cc1
Out: 29.9
